Would you mind telling me the reported pIC50 of each entry?
Target: human recombinant ATX (Homo sapiens (Human), UniProt Q13822)
Test: Autotaxin (ATX) activity Quanta Red assay
Settings: 15 μM Rac-1-Palmitoyl-glycero-3-phosphocholine, 2 hours room temperature, determined in duplicate
One number for each entry, as −log10 of the molar value.

Use these answered entries as a reference point.
| compound | pIC50 |
| --- | --- |
| O=C(N[C@H]1CCN(c2ccc(CN3CCOCC3)cc2)C1)c1nnc(CCc2ccc(Cl)cc2)s1 | 7.80 |
| O=C(NC1CC(=O)N(c2ccc(CN3CCCCC3)cc2)C1)c1nnc(NCc2ccc(Cl)cc2)s1 (stereo not shown) | 6.99 |
| O=C(Nc1nnc(CCc2ccc(Cl)cc2)s1)[C@@H]1CC(=O)N(c2ccc(CN3CCOCC3)cc2)C1 | 7.43 |
| CCN(CC)Cc1ccc(N2CC(C(=O)Nc3nnc(CCc4ccc(Cl)cc4)s3)CC2=O)cc1 (stereo not shown) | 8.70 |

Hi team, please reply with pIC50 for each item in this list.
1. CN(Cc1ccc(N2C[C@@H](C(=O)Nc3cc(CCc4ccc(Cl)cc4)on3)CC2=O)cc1)C1CCOC1 (stereo partly shown)
2. O=C(NC1CC(=O)N(c2ccc(CN3CCCCC3)cc2)C1)c1cc(CCc2ccc(Cl)cc2)on1 (stereo not shown)
3. O=C(Nc1nnc(CCc2ccc(Cl)cc2)s1)C1CC(=O)N(c2ccc(CN3CCCCCC3)cc2)C1 (stereo not shown)

RESULT:
8.70
8.70
8.52
